Documented pKi across a set of compounds
- measurementTarget: IMP-1 (Serratia marcescens, UniProt P52699)
- Sequence (P52699 19-246 limits assumed): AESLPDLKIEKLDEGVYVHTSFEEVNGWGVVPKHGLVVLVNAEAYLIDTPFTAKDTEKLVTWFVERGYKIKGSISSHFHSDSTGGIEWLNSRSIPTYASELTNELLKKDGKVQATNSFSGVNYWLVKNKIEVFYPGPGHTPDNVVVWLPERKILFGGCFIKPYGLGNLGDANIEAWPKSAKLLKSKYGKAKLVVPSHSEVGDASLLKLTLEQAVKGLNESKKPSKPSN
Lab note: report pKi as minus log10 of the concentration in molar units, number only.

Example entries and their recorded answers appear below.
CCc1c(C(=O)O)c(S(N)(=O)=O)c(CC)n1C = 6.59
NS(=O)(=O)c1c(C2CCCC2)oc(C2CCCC2)c1C(=O)O = 5.90
NS(=O)(=O)c1sccc1C(=O)O = 4.47
Cc1c(C(=O)O)c(S(N)(=O)=O)c(C)n1C1CC1 = 4.85
CCCc1oc(CCC)c(S(N)(=O)=O)c1C(=O)O = 6.42

Request: What value of pKi has been reported for the following compound? Cc1oc(C)c(S(N)(=O)=O)c1C(=O)O
Result: 6.66

Request: What value of pKi has been reported for the following compound? NS(=O)(=O)c1sc(Cl)cc1C(=O)O
Result: 4.72

Request: What value of pKi has been reported for the following compound? Cc1c(C(=O)O)c(S(N)(=O)=O)c(C)n1-c1ccccc1
Result: 5.12

Request: What value of pKi has been reported for the following compound? CCc1oc(CC)c(S(N)(=O)=O)c1C(=O)O
Result: 6.52

Request: What value of pKi has been reported for the following compound? Cc1c(C(=O)O)c(S(N)(=O)=O)c(C)n1C
Result: 5.91
